Give Reduced relative colony forming efficiency, HepG2 (% inhibition of colony forming ability) for every item shown.
# System: HepG2 hepatocellular carcinoma
# PROCEDURE TEXT: Relative colony forming efficiency (Example 17, Table 13)
# Type: cell-based, human
# PROTOCOL CONDITIONS: averages of 2-8 determinations
Oligonucleotides are written 5' to 3', each unit as a sugar letter and its base; * is a phosphorothioate linkage, no mark a phosphodiester; rarer units and linkages stand in square brackets, end groups in braces. Plain capitals give the bases only. d = 2'-deoxy (DNA)
Entry rule: numbers only, all in %.

Item: CGCGCGCTCCCGGCCCTTCC (listed as DNA, chemistry not fully specified) [AS-II-75-20] | Reduced relative colony forming efficiency, HepG2 (% inhibition of colony forming ability): 97.89

Item: AS-II-1560.20 (antisense dG*dT*dA*dA*dG*dT*dC*dA*dC*dA*dG*dC*dC*dA*dG*dC*dC*dA*dG*dG) | Reduced relative colony forming efficiency, HepG2 (% inhibition of colony forming ability): 73.63

Item: CGCGCTCCCGGCCC (antisense dC*dG*dC*dG*dC*dT*dC*dC*dC*dG*dG*dC*dC*dC) [AS-II-79-14] | Reduced relative colony forming efficiency, HepG2 (% inhibition of colony forming ability): 70.81

Item: CGGGTCCGTGATGGGCGCGA (antisense dC*dG*dG*dG*dT*dC*dC*dG*dT*dG*dA*dT*dG*dG*dG*dC*dG*dC*dG*dA) [AS-II-217-20] | Reduced relative colony forming efficiency, HepG2 (% inhibition of colony forming ability): 99.55

Item: CCTCCTCGGCGGTCCAAAAG (antisense dC*dC*dT*dC*dC*dT*dC*dG*dG*dC*dG*dG*dT*dC*dC*dA*dA*dA*dA*dG) [AS-II-494-20] | Reduced relative colony forming efficiency, HepG2 (% inhibition of colony forming ability): 93.37

Item: AAGCGGCGGGGGTTTTCTCT (antisense dA*dA*dG*dC*dG*dG*dC*dG*dG*dG*dG*dG*dT*dT*dT*dT*dC*dT*dC*dT) [AS-II-414-20] | Reduced relative colony forming efficiency, HepG2 (% inhibition of colony forming ability): 30.89

Item: GGGAGAGCATAGTGGAGGCG (antisense dG*dG*dG*dA*dG*dA*dG*dC*dA*dT*dA*dG*dT*dG*dG*dA*dG*dG*dC*dG) [AS-II-185-20] | Reduced relative colony forming efficiency, HepG2 (% inhibition of colony forming ability): 53.44

Item: GCAAAGAAAGCCAGAACATG (antisense dG*dC*dA*dA*dA*dG*dA*dA*dA*dG*dC*dC*dA*dG*dA*dA*dC*dA*dT*dG) [AS-II-579-20] | Reduced relative colony forming efficiency, HepG2 (% inhibition of colony forming ability): 94.28

Item: TTCTCTTACTCTCTCCTCCG (antisense dT*dT*dC*dT*dC*dT*dT*dA*dC*dT*dC*dT*dC*dT*dC*dC*dT*dC*dC*dG) [AS-II-1048-20] | Reduced relative colony forming efficiency, HepG2 (% inhibition of colony forming ability): 77.56

Item: C*CCC*TCAC*TCC*AGC*AGC*CT*T (antisense dC*dCdCdC*dTdCdAdC*dTdCdC*dAdGdC*dAdGdC*dCdT*dT) [AS-II-109-20] | Reduced relative colony forming efficiency, HepG2 (% inhibition of colony forming ability): 18.08

Item: TGTAAACCCTCATCTCTGCT (antisense dT*dG*dT*dA*dA*dA*dC*dC*dC*dT*dC*dA*dT*dC*dT*dC*dT*dG*dC*dT) [AS-II-981-20] | Reduced relative colony forming efficiency, HepG2 (% inhibition of colony forming ability): 95.03

Item: GCATCCAAGGTAAAAGAATT (antisense dG*dC*dA*dT*dC*dC*dA*dA*dG*dG*dT*dA*dA*dA*dA*dG*dA*dA*dT*dT) [AS-II-1335-20] | Reduced relative colony forming efficiency, HepG2 (% inhibition of colony forming ability): 72.98

Item: CTGCTTTAGTTTTCGGCTCC (antisense dC*dT*dG*dC*dT*dT*dT*dA*dG*dT*dT*dT*dT*dC*dG*dG*dC*dT*dC*dC) [AS-II-362-20] | Reduced relative colony forming efficiency, HepG2 (% inhibition of colony forming ability): 95.78

Item: TCGCTCCACCAAGTTTTCAT (antisense dT*dC*dG*dC*dT*dC*dC*dA*dC*dC*dA*dA*dG*dT*dT*dT*dT*dC*dA*dT) [AS-II-619-20] | Reduced relative colony forming efficiency, HepG2 (% inhibition of colony forming ability): 92.02

Item: TCCTTTATCCCACAACACTC (antisense dT*dC*dC*dT*dT*dT*dA*dT*dC*dC*dC*dA*dC*dA*dA*dC*dA*dC*dT*dC) [AS-II-2067-20] | Reduced relative colony forming efficiency, HepG2 (% inhibition of colony forming ability): 90.36

Item: CGGCTCATCCTCCACGC (antisense dC*dG*dG*dC*dT*dC*dA*dT*dC*dC*dT*dC*dC*dA*dC*dG*dC) [AS-II-391-17] | Reduced relative colony forming efficiency, HepG2 (% inhibition of colony forming ability): 60.64

Item: TCAGCATCCAAGGTAAAAGA (antisense dT*dC*dA*dG*dC*dA*dT*dC*dC*dA*dA*dG*dG*dT*dA*dA*dA*dA*dG*dA) [AS-II-1338-20] | Reduced relative colony forming efficiency, HepG2 (% inhibition of colony forming ability): 80.41

Item: TCAGAGGGGGCAGAGAATCC (antisense dT*dC*dA*dG*dA*dG*dG*dG*dG*dG*dC*dA*dG*dA*dG*dA*dA*dT*dC*dC) [AS-II-2044-20] | Reduced relative colony forming efficiency, HepG2 (% inhibition of colony forming ability): 62.35

Item: ATGGTACTCGATGGGGAAGA (chemistry not given here) [AS-II-439-20] | Reduced relative colony forming efficiency, HepG2 (% inhibition of colony forming ability): 73.04

Item: ACCCTTCCCATTGGCTGCGC (antisense dA*dC*dC*dC*dT*dT*dC*dC*dC*dA*dT*dT*dG*dG*dC*dT*dG*dC*dG*dC) [AS-II-6-20] | Reduced relative colony forming efficiency, HepG2 (% inhibition of colony forming ability): 97.89

Item: ATAAAGTCAAATGGGTTCTC (antisense dA*dT*dA*dA*dA*dG*dT*dC*dA*dA*dA*dT*dG*dG*dG*dT*dT*dC*dT*dC) [AS-II-1224-20] | Reduced relative colony forming efficiency, HepG2 (% inhibition of colony forming ability): 76.05

Item: CGGAGGGAGAGCATAGTGGA (antisense dC*dG*dG*dA*dG*dG*dG*dA*dG*dA*dG*dC*dA*dT*dA*dG*dT*dG*dG*dA) [AS-II-189-20] | Reduced relative colony forming efficiency, HepG2 (% inhibition of colony forming ability): 57.86

Item: CCCAGTTCCAGCATAAGTCT (antisense dC*dC*dC*dA*dG*dT*dT*dC*dC*dA*dG*dC*dA*dT*dA*dA*dG*dT*dC*dT) [AS-II-1182-20] | Reduced relative colony forming efficiency, HepG2 (% inhibition of colony forming ability): 92.23

Item: ATGGAAAAAAAAAATCAGCC (antisense dA*dT*dG*dG*dA*dA*dA*dA*dA*dA*dA*dA*dA*dA*dT*dC*dA*dG*dC*dC) [AS-II-1390-20] | Reduced relative colony forming efficiency, HepG2 (% inhibition of colony forming ability): 90.21
